The measurements presented in this section are drawn from PubChem BioAssay (Tox21).

Entries annotated with measured Potency
experiment: qHTS assay to identify small molecule antagonists of the thyroid receptor (TR) signaling pathway (AID 743065); conditions: GH3.TRE-Luc, T3-stimulated luciferase inhibition, 23.5 h; series mostly up to 70.3 µM; further: potency means the concentration at half of the fitted maximal effect; nearly all actives have a fitted effect of over 55% in size
Results filed as inconclusive are left out. The source made the active and inactive calls. The call rests on the fitted dose curve; in most records, active means well fitted inhibition curve with a large enough effect in the repeat runs; inconclusive means weak or mixed curves; inactive means no such curve, though single readings can be large or run the other way.

COc1cc([C@@H]2c3cc4c(cc3C(O[C@@H]3O[C@@H]5CO[C@@H](C)O[C@H]5[C@H](O)[C@H]3O)C3COC(=O)[C@@H]32)OCO4)cc(OC)c1OP(=O)(O)O (stereo partly drawn); 11.9 µM (active)

# ---- query molecule ----
Record `C=C1/C(=C\C=C2/CCC[C@]3(C)[C@@H]([C@H](C)OCCC(C)(C)O)CC[C@@H]23)C[C@@H](O)C[C@@H]1O` , field Potency: 37.6 µM (active)
